Cited source for all entries: PubChem BioAssay AID2205

For each entry below, report its % tubulin-high responders value.
# Assay Procedure: tubulin staining increase by stabilizing compounds – imaging, high-content imaging, primary screen (AID 2205);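 as to % tubulin-high responders: anti alpha tubulin signal scored within the nucleus-defined area of each cell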
# Experimental Context: HeLa tubulin immunostaining HCS, 24 h, at 10 µM; stronger effect = higher value, share of cells brighter than vehicle mean+2SD
Out of some 200,000 compounds screened, about 1,600 (0.8%) were called active. Only a selection was taken, and actives are over-represented in it overall.
Give the value in % but do not write % after it.

For record CN(NC(=O)c1ccccc1F)c1nc(C(F)(F)F)nc2ccccc12 the listed % tubulin-high responders is 12.1

For record CC(=O)c1ccc(S(=O)(=O)Nc2ccc(C(=O)NCC(c3ccccc3)N(C)C)cc2)cc1 (configuration not stated) the listed % tubulin-high responders is 1.91

For record COc1ccc(OC)c(Nc2nc(-c3ccc(O)c(O)c3)cs2)c1 the listed % tubulin-high responders is 34

For record CCC1=C(C(=O)OC)C(c2cc(OC)ccc2OC)C(C#N)=C(N)O1 (configuration not stated) the listed % tubulin-high responders is 3.6

For record Cc1ccc(C(=O)NC(=S)Nc2ccccc2C)cc1 the listed % tubulin-high responders is 1.11

For record CN(NC(=O)c1ccccc1)c1nc2ccccc2nc1C(F)(F)F the listed % tubulin-high responders is 48.6

For record COc1ccc(NC(C(=O)Nc2cccc(C(C)=O)c2)c2ccccc2)cc1 (configuration not stated) the listed % tubulin-high responders is 2.7

For record COc1cccc(CN(C)CC(=O)Nc2sc3c(c2C#N)CCC3)c1 the listed % tubulin-high responders is 3.67

For record CC(Sc1nnc2c(n1)C1CCC2(C)C1(C)C)C(=O)Nc1ccccc1 (configuration not stated) the listed % tubulin-high responders is 3.52

For record Cc1c(/C=N\NC(=O)c2cc3ccccc3o2)c2ccccc2n1C the listed % tubulin-high responders is 38.7

For record CCc1ccc(NC(=O)CC2C(=O)NCCN2C(=S)Nc2ccccc2)cc1 (configuration not stated) the listed % tubulin-high responders is 3.9

For record COc1ccc(-n2c(C)nn(CC3CC3)c2=O)cc1 the listed % tubulin-high responders is 0.918

For record O=C1CC(N2CCN(c3ccc(F)cc3)CC2)C(=O)N1c1ccccc1 (configuration not stated) the listed % tubulin-high responders is 2.61

For record COC(=O)N/N=C/c1cn(CCCOc2ccc(C)cc2)c2ccccc12 the listed % tubulin-high responders is 1.39

For record CCn1cc(CN2CCCC(CNS(=O)(=O)Cc3ccccc3)C2)cn1 (configuration not stated) the listed % tubulin-high responders is 3.89

For record O=C(CN1CCC(O)(c2ccccc2)CC1)Nc1ccc2c(c1)OCCO2 the listed % tubulin-high responders is 5.34

For record CCCCCCCCCCOC(=O)C[N+](C)(C)CC1CCCCC1O (configuration not stated) the listed % tubulin-high responders is 1.85

For record COc1ccc(C(=O)NN(C)c2nc(-c3ccccc3)cc(C)c2S(C)(=O)=O)cc1 the listed % tubulin-high responders is 2.71

For record COc1ccc(C2C(C#N)=C(N)Oc3cc(N)ccc32)cc1OC (configuration not stated) the listed % tubulin-high responders is 44.5

For record Cc1cc(C)n(-c2nc(C(F)(F)F)nc3ccccc23)n1 the listed % tubulin-high responders is 5.42

For record CCOc1cccc(/C=C/c2ccc3ccccc3n2)c1OC(C)=O the listed % tubulin-high responders is 5.51

For record CC(C)Cc1nc(Nc2ccc(S(=O)(=O)N3CCCC3)cc2)c2nnn(Cc3ccccc3)c2n1 the listed % tubulin-high responders is 3.7

###

# Assay Procedure: tubulin staining increase by stabilizing compounds – imaging, high-content imaging, primary screen (AID 2205);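 as to toxicity: 0% = mean cell density of plate MIN control wells and 100% = no cells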
# Experimental Context: HeLa tubulin immunostaining HCS, 24 h, at 10 µM; measured here: cytotoxicity by cell density
In all, about 200,000 compounds went through this assay and about 1,600 (0.8%) were called active. The full list was thinned out, with actives kept by preference.
For each entry below, report its toxicity value.
Give the value in % but do not write % after it.

For record CCCCCCCC[n+]1cccc(C(=O)N2c3c(nc(N)[nH]c3=O)NC(C)C2C)c1 (configuration not stated) the listed toxicity is 7.45

For record CCO[C@H]1OC(C(=O)Nc2ccccc2)=C[C@@H](C2CC2)[C@@H]1CCCO the listed toxicity is 3.73

For record COc1ccc(-c2csc(Nc3ccc(O)cc3)n2)cc1 the listed toxicity is 2.94

For record O=c1ccc2cc(S(=O)(=O)N3CCN(c4ccccc4)CC3)ccc2o1 the listed toxicity is 5.98

For record Cc1ccc(S(=O)(=O)N(C)C)cc1NC(=O)c1ccccc1Br the listed toxicity is 6.59

For record COc1ccc2c(c1)C(c1cccs1)=NNC(c1cccnc1)=N2 the listed toxicity is 7.76

For record Nc1c(C(=O)O)cnn1-c1ccccc1 the listed toxicity is 3.6

For record N=C1C(c2nc3ccccc3s2)=C(O)CN1NC(=O)c1ccc([N+](=O)[O-])cc1 the listed toxicity is 4.7

For record CC(C)OCCCNC(=O)c1cc(Sc2ccc(F)cc2)nc2ccccc12 the listed toxicity is 6.52

For record O=C1CC(=O)Nc2cc(S(=O)(=O)N3CCN(c4cccc(C(F)(F)F)c4)CC3)ccc2N1 the listed toxicity is 36.8

For record CCC(C)NC(=O)/C=C/c1ccc(S(=O)(=O)NCc2ccco2)cc1 (configuration not stated) the listed toxicity is 3.99

For record CCc1nnc(NS(=O)(=O)c2ccc(N=Cc3c(C)[nH]n(-c4ccc(C)cc4)c3=O)cc2)s1 the listed toxicity is 6.1

For record COc1ccc(C2=NOC(C(=O)NCc3ccco3)C2)cc1OC (configuration not stated) the listed toxicity is 66.2

For record Cc1cc(C)c2c(c1)cc(C)c1nnc(SCC(=O)Nc3cc(C)on3)n12 the listed toxicity is 66.4

For record CCOc1ccc2c(c1)C(c1ccc(C)cc1)=NNC(c1ccc(C)cc1)=N2 the listed toxicity is 35.7

For record Cc1[nH]n(-c2ccccc2)c(=O)c1/C=N/NC(=O)c1ccoc1C the listed toxicity is 2.88

For record O=[N+]([O-])c1ccc(C=Nc2ccc(Cl)cc2Cl)s1 the listed toxicity is 16

For record O=C(/C=C/c1ccc(Cl)c([N+](=O)[O-])c1)c1cccnc1 the listed toxicity is 2.98

For record O=C(COC(=O)c1cnc(Cl)c(Cl)c1)NCc1ccco1 the listed toxicity is 7.79

For record Cc1cc(-c2nnc(CCC(=O)NC(c3ccccc3)c3ccccc3)o2)no1 the listed toxicity is 7.53

For record CC(C)(O)C#Cc1ncc(C(F)(F)F)cc1Cl the listed toxicity is 7.29

For record CCS(=O)(=O)Nc1ccc(C2=NN(C(C)=O)C(c3cccs3)C2)cc1 (configuration not stated) the listed toxicity is 26.6

For record Cc1cc(NC(=O)CSc2nnc(Nc3ccccc3F)s2)no1 the listed toxicity is 6.41

For record COC(=O)C1C(=O)NCC1c1ccc(C)cc1 (configuration not stated) the listed toxicity is 6.65

For record O=C(CSc1ccc2nnc(-c3ccccc3)n2n1)N1CCCc2ccccc21 the listed toxicity is 12.3

For record Cc1cc(C(=O)OCC(=O)NCc2ccco2)c(C)n1-c1ccccc1 the listed toxicity is 57.4

For record Cc1ccc(CNC(=O)C2CC(c3ccccc3[N+](=O)[O-])=NO2)o1 (configuration not stated) the listed toxicity is 2.23

For record CC1(C)CC(=O)C(CC(=O)N2CCC(Cc3ccccc3)CC2)C(=O)C1 the listed toxicity is 7.14

For record O=C(Nc1ccn(Cc2ccccc2)n1)c1n[nH]c([N+](=O)[O-])c1Cl the listed toxicity is 24.4

For record CCOc1cccc(/C=N/N2C(=O)CSC2=S)c1O the listed toxicity is 14.4

For record CC1Cc2ccccc2N1S(=O)(=O)c1c(N)n(C)c(=O)n(C)c1=O (configuration not stated) the listed toxicity is 7.69

For record O=c1cc(N2CCCCC2)c(-c2ccccc2)nn1Cc1cccc(F)c1 the listed toxicity is 4.95

For record CSc1ccc(/C=N\NC(=O)CC(=O)NC(C)C)cc1 the listed toxicity is 8.56

For record O=C(NC1CCCCCC1)c1cccnc1Sc1ccc(Cl)cc1 the listed toxicity is 7.66

For record O=C(c1cc(=O)c2ccccc2o1)N1CCN(c2ccccc2)CC1 the listed toxicity is 10.7

For record c1ccc(CN=C2Nc3ccccc3CS2)nc1 the listed toxicity is 4.5

For record Nc1ncc(-c2cc3ccccc3oc2=O)s1 the listed toxicity is 5

For record O=c1oc2ccccc2cc1-c1cn(-c2ccccc2)c(=S)[nH]1 the listed toxicity is 39.3

For record COc1ccc(-c2cc(C(=O)NCc3ccco3)no2)cc1OC the listed toxicity is 8.27

For record COC(=O)C1=C(Nc2ccc(C)cc2)C=C(C)C(C(=O)OC)C1c1ccc(F)cc1 (configuration not stated) the listed toxicity is 39.5

For record O=S(=O)(c1cccc(C(F)(F)F)c1)N1CCN(c2cnccn2)CC1 the listed toxicity is 6.14

For record COc1ccccc1CNC(=O)c1cc(=O)c2ccccc2o1 the listed toxicity is 11.9

For record CCOc1ccc(NC(=S)N2CCC(N(C)CC3CCCO3)CC2)cc1 (configuration not stated) the listed toxicity is 7.25

For record CCCn1c(SCC(=O)Nc2ccc(C)c(S(=O)(=O)N3CCOCC3)c2)n[nH]c1=O the listed toxicity is 5.63

For record Cc1[nH]n(-c2ccc(Cl)cc2)c(=O)c1/C=N/n1c(C)nc2ccccc2c1=O the listed toxicity is 6.25

For record Cc1ccccc1NCC(=O)N/N=C\c1ccc([N+](=O)[O-])s1 the listed toxicity is 1.44

For record CCOC(=O)c1cnc2ccc(F)cc2c1Nc1ccc2c(c1)OCCO2 the listed toxicity is 9.58
